Source: patent US20210253725A1

- target.of.assay: T1, CD134 expressed on the cell surface of HT1080_OX40 cells (human, UniProt P43489 29-277)
- T1 construct: whole, on cells; species not restated for the HT1080 transfectant
- T1 sequence (looked up): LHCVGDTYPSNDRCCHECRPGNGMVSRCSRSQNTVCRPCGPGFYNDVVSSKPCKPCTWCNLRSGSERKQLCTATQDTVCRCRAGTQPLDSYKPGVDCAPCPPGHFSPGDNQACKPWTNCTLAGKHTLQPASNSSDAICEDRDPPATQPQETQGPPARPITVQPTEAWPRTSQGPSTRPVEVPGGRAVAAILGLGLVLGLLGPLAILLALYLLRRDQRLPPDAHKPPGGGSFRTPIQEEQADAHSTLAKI
- test.name: HT1080_OX40 cells, imaging; note: test concentration or dose not given here
Here the recorded Cellular binding assay [RFU] is given for each entry.
measured.metric: Cellular binding assay [RFU] (RFU)

binder="P018.S.12.A.G03 (antibody, V domains shown, V regions on human Ig constant parts; also called AB134_85) VH: QSLEESGGRLVTPGGSLTLTCTLSGIDLSSNAISWVRQAPGKGLEWIGIIFPGDNIYYATWAKGRFTISKTSTTVDLKMTSLRTADTATYFCARYHADDSVDLWGPGTLVTVSS VL: AYDMTQTPASVSEPVGGTVTIKCQASQSINGWLSWYQQKPGQRPRLLIYRASDLAPGVSSRFKGSGSGTQFTLTISDVESADAATYYCHLGDIYSNIDYVFGGGTEVVVK" recorded_measurement=452
binder="P018.S.04.A.D06 (antibody, V domains shown, V regions on human Ig constant parts; also called AB134_9) VH: QSLEESGGDLVKPGASLTLTCTASGFSFSSSYYMCWVRQAPGKGLEWIACIYTGDGASYYASWAKGRFTISKPSSTTVTLQVTSLTAADTATYFCGRGEYDNDWGFGLWGPGTLVTVSS VL: AYDMTQTPASVEVPVGGTVTINCQASEDISSYLSWYQQKPGQPPELLIYYASNLASGVSSRFKGSRSGTEFTLTISDLESADAATYYCQCSNYGGSWTFGGGTEVVVK" recorded_measurement=510
binder="P018.S.11.A.F05 (antibody, V domains shown, V regions on human Ig constant parts; also called AB134_41) VH: QSLEESGGRLVTPGTPLTLTCTVSGFSLSRYHMSWVRQAPGKGLEYIGYIHTDDTNWYASWAKGRFTISKTSTTVDLKITSPTTEDTATYFCARVSSVGGYYFDLWGQGTLVTVSS VL: DVVMTQTPASVSEPVGGTVTIKCQASEDIYNLLAWYQQKPGQPPKLLIYAASTLASGVPSRFKGSGSGTQFTLTISDLESADAATYYCQNNYLISSYGVGFGGGTEVVVK" recorded_measurement=396
